- assayedSystem: human P2X3 receptor (Homo sapiens (Human))
- assayProtocol: P2X3 receptor inhibition, ATP-evoked Fluo-3 calcium fluorescence (FDSS 3000)
- conditionsUsed: C6BU-1 cell transfected with human P2X3 receptor gene; ATP-evoked Fluo-3 fluorescence
quantityKind: IC50 (nM)

{"compound": "Cc1ccc(-c2ccc(N3C(=O)C(O)=C(C(=O)C(C)C)C3c3ccccc3OCCO)cc2)s1 (stereo not drawn)", "measuredValue": 24}
{"compound": "CC(C)C(=O)C1=C(O)C(=O)N(c2ccc(-c3ccsc3)cc2)C1c1cccnc1OCC(=O)O (stereo not drawn)", "measuredValue": 235}
{"compound": "CC(C)(C)c1n[nH]c2c1C(c1cccc[n+]1[O-])N(c1ccc(-c3cccs3)cc1)C2=O (stereo not drawn)", "measuredValue": 36}
{"compound": "COCc1ccccc1C1C(C(=O)CC(C)C)=C(O)C(=O)N1c1ccc(-c2ccc(C)o2)cc1 (stereo not drawn)", "measuredValue": 7}
{"compound": "CC(C)c1n[nH]c2c1C(c1cccnc1OCC(N)=O)N(c1ccc(-c3ccsc3)cc1)C2=O (stereo not drawn)", "measuredValue": 26}

[I] CSc1ccccc1C1c2c(C(C)(C)C)n[nH]c2C(=O)N1c1ccc(-c2ccon2)cc1 (stereo not drawn)
[II] CC(C)(C)C(=O)C1=C(O)C(=O)N(c2ccc(-c3ccon3)cc2)C1c1ccccc1OC(F)(F)F (stereo not drawn)
[III] CC(C)(C)c1n[nH]c2c1C(c1ccccc1OCCO)N(c1ccc(-c3nccs3)cc1)C2=O (stereo not drawn)
[IV] Cc1ccc(-c2ccc(N3C(=O)C(O)=C(C(=O)C(C)C)C3c3ccccc3N3CCCC3=O)cc2)s1 (stereo not drawn)
[V] Cc1nc(-c2ccc(N3C(=O)C(O)=C(C(=O)C(C)C)C3c3ccccc3OC3CCOCC3)cc2)no1 (stereo not drawn)
Ask: rank_up(items): orders items by reported IC50 in ascending numerical order. Answer format: list of labels, ordered as asked.
Result: III, I, V, II, IV

* * *

- assayedSystem: human P2X3 receptor (Homo sapiens (Human), UniProt P56373)
- Sequence (P56373 whole entry): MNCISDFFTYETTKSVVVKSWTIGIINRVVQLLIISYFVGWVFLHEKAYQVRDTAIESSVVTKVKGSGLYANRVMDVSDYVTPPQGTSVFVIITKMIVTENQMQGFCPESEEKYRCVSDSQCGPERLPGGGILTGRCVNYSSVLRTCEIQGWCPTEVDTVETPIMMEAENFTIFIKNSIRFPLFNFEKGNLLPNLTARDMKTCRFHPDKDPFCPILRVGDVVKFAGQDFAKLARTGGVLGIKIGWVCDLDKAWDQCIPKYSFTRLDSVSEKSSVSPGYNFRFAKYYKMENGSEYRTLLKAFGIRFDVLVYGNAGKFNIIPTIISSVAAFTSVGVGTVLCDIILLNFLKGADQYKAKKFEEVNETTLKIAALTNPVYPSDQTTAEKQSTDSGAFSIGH
- assayProtocol: P2X3 receptor inhibition, ATP-evoked Fluo-3 calcium fluorescence (FDSS 3000)
- conditionsUsed: C6BU-1 cell transfected with human P2X3 receptor gene; ATP-evoked Fluo-3 fluorescence
quantityKind: IC50 (nM)

{"molecule": "CC(C)(C)c1n[nH]c2c1C(c1ccccc1OCC#N)N(c1ccc(-c3ccon3)cc1)C2=O (centres unmarked) [II-108]", "measuredValue": 15}
{"molecule": "COCCOc1ccccc1C1c2c(C(C)(C)C)n[nH]c2C(=O)N1c1ccc(-c2ccon2)cc1 (centres unmarked) [II-018]", "measuredValue": 22}
{"molecule": "COc1ccccc1C1C(C(=O)C(C)(C)C)=C(O)C(=O)N1c1ccc(C(C)(C)C)cc1 (centres unmarked) [Compound I-046]", "measuredValue": 580}
{"molecule": "Cc1nc(-c2ccc(N3C(=O)C(O)=C(C(=O)CC(C)C)C3c3ccccc3OC(C)C)cc2)no1 (centres unmarked) [Compound I-317]", "measuredValue": 73}
{"molecule": "CCc1ccccc1C1c2c(C(C)(C)C)n[nH]c2C(=O)N1c1ccc(-c2ccon2)cc1 (centres unmarked) [II-106]", "measuredValue": 226}

[P] COc1ccccc1C1c2c(C(C)(C)C)n[nH]c2C(=O)N1c1ccc(-c2ccsc2Cl)cc1 (centres unmarked) [II-272]
[Q] COCCOc1ncccc1C1c2c(C(C)(C)C)n[nH]c2C(=O)N1c1ccc(SC)cc1 (centres unmarked) [II-034]
Ask: Select the item with the higher value of IC50 from the options P and Q listed. Return value: the label identifying the chosen record.
Result: P

* * *

- assayedSystem: human P2X3 receptor (Homo sapiens (Human))
- assayProtocol: P2X3 receptor inhibition, ATP-evoked Fluo-3 calcium fluorescence (FDSS 3000)
- Format: cell-based
- conditionsUsed: C6BU-1 cell transfected with human P2X3 receptor gene; ATP-evoked Fluo-3 fluorescence
quantityKind: IC50 (nM)

{"molecule": "CC(C)C(=O)C1=C(O)C(=O)N(c2ccc(-c3ccsc3)cc2)C1c1ccccc1OCC#N (centres unmarked)", "IC50, nM": 4}

[I] Cc1nc(-c2ccc(NC3=CC(C4CCCCC4)N(c4ccc(-c5noc(C)n5)cc4)C3=O)cc2)no1 (centres unmarked)
[II] COc1ccccc1C1c2c(C(C)(C)C)n[nH]c2C(=O)N1c1ccc(C(C)=O)cc1 (centres unmarked)
[III] CC(C)c1n[nH]c2c1C(c1ccccc1OCC[S+](C)[O-])N(c1ccc(-c3ccsc3)cc1)C2=O (centres unmarked)
[IV] CC(C)c1n[nH]c2c1C(c1ccccc1CC(=O)O)N(c1ccc(-c3ccsc3)cc1)C2=O (centres unmarked)
Ask: Reorder: IC50, max to min. Answer format: list of labels, ordered as asked.
Result: I, II, IV, III
(I: 646 nM, II: 322 nM, IV: 65 nM, III: 11 nM)

* * *

- assayedSystem: human P2X3 receptor (Homo sapiens (Human))
- assayProtocol: P2X3 receptor inhibition, ATP-evoked Fluo-3 calcium fluorescence (FDSS 3000)
- conditionsUsed: C6BU-1 cell transfected with human P2X3 receptor gene; ATP-evoked Fluo-3 fluorescence
pIC50: −log10 of the molar value.
quantityKind: pIC50

{"molecule": "COCCOc1ncccc1[C@@H]1C(C(=O)C(C)C)=C(O)C(=O)N1c1ccc(-c2ccc(C)s2)cc1", "pIC50": 8.15}

[1] COC(=O)COc1ccccc1C1c2c(C(C)(C)C)n[nH]c2C(=O)N1c1ccc(-c2ccsc2)cc1 (stereo not shown)
[2] CC(C)(C)C(=O)C1=C(O)C(=O)N(c2ccc(-c3ccon3)cc2)C1c1cccc2c1OCO2 (stereo not shown)
Ask: Identify the item whose pIC50 is the smaller number: 1 or 2 Return value: the label identifying the chosen record.
Result: 2

[I] COCCOc1ncccc1C1C(C(=O)C(C)(C)C)=C(O)C(=O)N1c1ccc(-c2ccon2)cc1 (stereo not shown)
[II] C[S+]([O-])CCOc1ccccc1C1c2c(C(C)(C)C)n[nH]c2C(=O)N1c1ccc(-c2ccon2)cc1 (stereo not shown)
[III] COCc1ccccc1C1C(C(=O)CC(C)C)=C(O)C(=O)N1c1ccc(-c2csc(C)n2)cc1 (stereo not shown)
Ask: Reorder: pIC50, max to min. Answer format: list of labels, ordered as asked.
Result: II, III, I
(II: 7.00, III: 6.40, I: 6.03)

* * *

- assayedSystem: human P2X3 receptor (Homo sapiens (Human), UniProt P56373)
- assayProtocol: P2X3 receptor inhibition, ATP-evoked Fluo-3 calcium fluorescence (FDSS 3000)
- conditionsUsed: C6BU-1 cell transfected with human P2X3 receptor gene; ATP-evoked Fluo-3 fluorescence
quantityKind: IC50 (nM)

Study these solved cases before continuing.
{"compound": "COc1ccccc1C1c2c(C(C)C)n[nH]c2C(=O)N1c1ccc(-c2ccsc2)c(C(N)=O)c1 (stereo not shown)", "units": "nM", "measuredValue": 152}
{"compound": "COc1ccccc1[C@@H]1C(C(=O)CC(C)C)=C(O)C(=O)N1c1ccc(-c2ccsc2)cc1", "units": "nM", "measuredValue": 16}
{"compound": "COc1ccccc1C1C2C(=O)C(C)(C)COC2(O)C(=O)N1c1ccc(-c2ccsc2)cn1 (stereo not shown)", "units": "nM", "measuredValue": 195}
{"compound": "COCCOc1ccccc1C1C(C(=O)CC(C)C)=C(O)C(=O)N1c1ccc(-c2nc(C)no2)cc1 (stereo not shown)", "units": "nM", "measuredValue": 491}
{"compound": "COc1ccccc1C1c2c(C(C)(C)C)n[nH]c2C(=O)N1c1ccc(-c2ccco2)cc1 (stereo not shown)", "units": "nM", "measuredValue": 28}
{"compound": "CC(C)(C)c1n[nH]c2c1C(c1cccnc1OCCO)N(c1ccc(-c3ccsc3)cc1)C2=O (stereo not shown)", "units": "nM", "measuredValue": 5}
{"compound": "COc1ccccc1C1c2c(C(C)(C)C)n[nH]c2C(=O)N1c1ccc(-c2ccco2)cn1 (stereo not shown)", "units": "nM", "measuredValue": 33}
{"compound": "COc1ccccc1C1c2c(C(C)(C)C)n[nH]c2C(=O)N1c1ccc(-c2ccsc2)nc1 (stereo not shown)", "units": "nM", "measuredValue": 2}
{"compound": "COc1ccccc1C1C(C(=O)C(C)(C)C)=C(O)C(=O)N1c1ccc(-c2ccoc2)cc1 (stereo not shown)", "units": "nM", "measuredValue": 48}
{"compound": "CCC(CC)C1C(C(=O)c2ccc(C(=O)N(C)C)cc2)=C(O)C(=O)N1c1ccc(-c2noc(C)n2)cc1 (stereo not shown)", "units": "nM", "measuredValue": 24}

[A] Cc1ccc(-c2ccc(N3C(=O)C(O)=C(C(=O)C(C)C)C3c3ccccc3C(=O)N(C)C)cc2)s1 (stereo not shown)
[B] COCc1ccccc1[C@H]1C(C(=O)C(C)C)=C(O)C(=O)N1c1ccc(-c2ccsc2)cc1
[C] CC(C)(C)C(=O)C1=C(O)C(=O)N(c2ccc(-c3cc[nH]c3)cc2)C1c1ccccc1OCCO (stereo not shown)
[D] COc1ccccc1C1C(C(=O)C(C)(C)CO)=C(O)C(=O)N1c1ccc(SC)cc1 (stereo not shown)
Ask: rank_up(items): orders items by reported IC50 in ascending numerical order. Answer format: list of labels, ordered as asked.
Result: A, C, D, B

src = patent US8575197B2
